System: Myc mRNA
TEST_METHOD_NOTES: Inhibition of Myc expression (Myc mRNA) in MV4-11 cells
Type: cell-based
MEASUREMENT_PARAMETERS: Homo sapiens, 4 hours of treatment, read-out: EC50 range, Myc mRNA normalized to GAPDH mRNA
pEC50: −log10 of the molar value.
ASSAY_METRIC: pEC50

Guide cases for pEC50, answers given:
COMPOUND	pEC50
COc1ccc2c(c1)C(c1ccc(Cl)cc1)=N[C@@H](CC(=O)NCCOCCOCCOCCOCCOCCOCCOCCOCCNC(=O)C[C@@H]1N=C(c3ccc(Cl)cc3)c3cc(OC)ccc3-n3c(C)nnc31)c1nnc(C)n1-2 [BRD-B-22]	7.00 to 7.52
COc1ccc2c(c1)C(c1ccc(Cl)cc1)=N[C@@H](CC(=O)NCCOCCOCCOCCOCCOCCOCCOCCOCCOCCNC(=O)C[C@@H]1N=C(c3ccc(Cl)cc3)c3cc(OC)ccc3-n3c(C)nnc31)c1nnc(C)n1-2 [BRD-B-23]	7.00 to 7.52
CCNC(=O)C[C@@H]1N=C(c2ccc(Cl)cc2)c2cc(OCCOCCOCCNC(=O)C[C@@H]3N=C(c4ccc(Cl)cc4)c4cc(OC)ccc4-n4c(C)nnc43)ccc2-n2c(C)nnc21 [BRD-B-04]	7.52 to 10.00

### Prompt Entry under review: CCNC(=O)C[C@@H]1N=C(c2ccc(Cl)cc2)c2cc(OCCCNC(=O)C[C@@H]3N=C(c4ccc(Cl)cc4)c4cc(OC)ccc4-n4c(C)nnc43)ccc2-n2c(C)nnc21 [BRD-B-02] . Reported pEC50?
### Response 4.52 to 7.00

### Prompt I'd like to know its pEC50. The compound in question is COc1ccc2c(c1)C(c1ccc(Cl)cc1)=N[C@@H](CC(=O)NCCNC(=O)CNC(=O)NCCNC(=O)C[C@@H]1N=C(c3ccc(Cl)cc3)c3cc(OC)ccc3-n3c(C)nnc31)c1nnc(C)n1-2 [BRD-B-09]
### Response 4.52 to 7.00

Source of measurements: patent US20140243322A1
